// provenance: patent US10173991B2

target: Endothelial lipase (EL) (Homo sapiens (Human), UniProt Q9Y5X9); test: Endothelial lipase (EL) enzymatic assay with fluorescent substrate A10070 in DMPG vesicles; format: biochemical
Sequence (Q9Y5X9 21-500): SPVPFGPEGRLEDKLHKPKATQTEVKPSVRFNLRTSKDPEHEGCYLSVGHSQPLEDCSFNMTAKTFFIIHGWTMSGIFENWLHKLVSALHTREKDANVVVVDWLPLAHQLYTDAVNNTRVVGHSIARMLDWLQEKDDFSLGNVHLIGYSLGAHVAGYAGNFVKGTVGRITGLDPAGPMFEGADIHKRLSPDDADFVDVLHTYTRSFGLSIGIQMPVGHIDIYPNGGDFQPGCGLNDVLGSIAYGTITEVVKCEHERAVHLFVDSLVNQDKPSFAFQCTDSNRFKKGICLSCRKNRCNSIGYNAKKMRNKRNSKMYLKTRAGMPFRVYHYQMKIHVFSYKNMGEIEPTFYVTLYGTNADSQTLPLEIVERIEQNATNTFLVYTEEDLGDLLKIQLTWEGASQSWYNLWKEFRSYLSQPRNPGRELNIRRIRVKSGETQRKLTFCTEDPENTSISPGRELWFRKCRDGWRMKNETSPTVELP
metric: pIC50
Answer as the number alone; pIC50 is minus log10 of concentration in mol/L.

Please review the following examples before continuing.
# compound, quantitative-result
rows = [
    ("COCCS(=O)(=O)C(C(=O)NCC(=O)NC1CC1)c1nc2cc(-c3cccc(C(=O)NCCO)c3)ccc2s1 (stereo not shown) [Example 399]", 7.20),
    ("COCCS(=O)(=O)C(C(=O)NCC(=O)NC1CC1)c1nc2ccc(-c3ccc(=O)n(C)c3)cc2s1 (stereo not shown) [Example 315]", 7.92),
    ("O=C(CNC(=O)C(c1nc2cc(-c3ccc(F)nc3)ccc2s1)S(=O)(=O)c1ccccc1)NC1CC1 (stereo not shown) [Example 437]", 7.89),
    ("O=C(CNC(=O)C(c1nc2cc(F)c(-c3ccc(NC(=O)OCc4ccccc4)nc3)cc2s1)S(=O)(=O)C1CC1)NC1CC1 (stereo not shown) [Example 556]", 7.82),
    ("O=C(CNC(=O)C(c1nc2ccc(-c3ccccc3)cc2s1)S(=O)(=O)c1ccc(F)cc1)NC1CC1 (stereo not shown) [Example 449]", 7.80),
]

Entry CC(C)S(=O)(=O)C(C(=O)NCC(=O)NC1CC1)c1nc2cc(F)c(-c3ccc(C(=O)Nc4nccs4)cc3)cc2s1 (stereo not shown) [Example 247] — recorded pIC50 = 7.96

get_value(item= O=C(CNC(=O)C(c1nc2cc(F)c(-c3ccc(NC(=O)NCc4ccccc4)cc3)cc2s1)S(=O)(=O)CCC(F)(F)F)NC1CC1 (stereo not shown) [Example 511] , readout=pIC50) returns 9.00

Reported pIC50 of COCCS(=O)(=O)C(C(=O)NCC(=O)NC1CC1)c1nc2ccc(-c3ccc(NC(=O)OC)cc3C)cc2s1 (stereo not shown) [Example 30] : 7.68

In plain terms, COCCS(=O)(=O)C(C(=O)NCC(=O)NC1CC1)c1nc2cc(F)c(-c3ccc(NC(=O)OCC(F)(F)F)cc3)cc2s1 (stereo not shown) [Example 526] has a documented pIC50 of 9.00

* * *

target: Endothelial lipase (EL) (Homo sapiens (Human), UniProt Q9Y5X9); assay: Endothelial lipase (EL) enzymatic assay with fluorescent substrate A10070 in DMPG vesicles; assay type: biochemical
metric: pIC50
In textbook form, pIC50 equals minus log to base ten of the concentration in mol/L.

# compound, metric, quantitative-result
data = [
    ("COCCS(=O)(=O)C(C(=O)NCC(=O)NC1COC1)c1nc2cc(-c3ccc(F)nc3)ccc2s1 (stereo not shown)", "pIC50", 7.60),
    ("COCCS(=O)(=O)C(C(=O)NCC(=O)NC1CC1)c1nc2cc(C(F)(F)F)c(-c3ccn(C)c(=O)c3)cc2s1 (stereo not shown)", "pIC50", 7.43),
    ("COCCNC(=O)c1ccc(-c2ccc3nc(C(C(=O)NCC(=O)NC4CC4)S(=O)(=O)CCOC)sc3c2)cc1 (stereo not shown)", "pIC50", 7.89),
    ("C[C@@H]1CN(C(=O)c2ccc(-c3ccc4nc(C(C(=O)NCC(=O)NC5CC5)S(C)(=O)=O)sc4c3)cc2)C[C@H](C)O1 (stereo partly shown)", "pIC50", 8.40),
    ("CC(C)CS(=O)(=O)C(C(=O)NCC(=O)NC1CC1)c1nc2ccc(-c3ccc(F)nc3)cc2s1 (stereo not shown)", "pIC50", 7.24),
    ("CS(=O)(=O)Nc1ccc(-c2cc3sc(C(C(=O)NCC(=O)NC4CC4)S(=O)(=O)CCC(F)(F)F)nc3cc2F)cc1 (stereo not shown)", "pIC50", 7.43),
]

Note: attention shifts to another entry.
Entry CC(C)S(=O)(=O)C(C(=O)NCC(=O)NC1CC1)c1nc2cc(-c3ccc(C(=O)N4CCC4)cc3)c(F)cc2s1 (stereo not shown) — recorded pIC50 = 7.89
